Assay: Tissue distribution of TET after a single i.t. administration in normal and LPS-treated mice
Conditions: BALB/c, mouse, muscle, inhaled or intranasal, 15 mg/kg, Cmax, normal mice; 15 mg/kg i.t.
valueType: Cmax (ng/mL)
Numbers only; they are read as ng/mL.

Exercise: Entry COc1ccc2cc1Oc1ccc(cc1)C[C@H]1c3cc(c(OC)cc3CCN1C)Oc1c(OC)c(OC)cc3c1[C@H](C2)N(C)CC3 [TET, Tetrandrine] needs its Cmax filled in; supply it.
Solution: 6120

---

Test: Tissue distribution of TET after a single i.t. administration in normal and LPS-treated mice
Settings: BALB/c, mouse, kidney, inhaled or intranasal, 15 mg/kg, AUC(0-∞), normal mice; 15 mg/kg i.t.
valueType: AUC(0-inf) (µg·h/mL)
Numeric answer only, unit µg·h/mL assumed.

Exercise: Given the molecule COc1ccc2cc1Oc1ccc(cc1)C[C@H]1c3cc(c(OC)cc3CCN1C)Oc1c(OC)c(OC)cc3c1[C@H](C2)N(C)CC3 [TET, Tetrandrine] , write its reported AUC(0-inf).
Solution: 8160
